- Method Notes: A CellTox Green Cytotoxicity Assay to monitor cytotoxicity in HEK293 cells - 32 hour (AID 1224881); further: nearly all actives have a fitted effect of over 40% in size
- Measurement Setup: CellTox Green fluorescence; series mostly up to 76.8 µM
Inconclusive results are not listed. The source made the active and inactive calls. The call rests on the fitted dose curve; in most records, active means well fitted activation curve with a large enough effect in the repeat runs; inconclusive means weak or mixed curves; inactive means flat fitted curve, though single readings scatter.
Outcomes: y = active, n = inactive

INSERT INTO measurements (compound, qualitative_label) VALUES
  ('O=C1Nc2ccccc2C1(c1ccc(O)cc1)c1ccc(O)cc1', 'n'),
  ('CC(C)(c1ccccc1)c1ccc(Nc2ccc(C(C)(C)c3ccccc3)cc2)cc1', 'n'),
  ('C/C=C/c1ccc(OCC)c(O)c1', 'n'),
  ('NC(N)=Nc1nc(CSCC/C(N)=N/S(N)(=O)=O)cs1', 'n'),
  ('O=C(O)c1cc(Cl)cc(Cl)c1', 'n'),
  ('BrC1CCC(Br)C(Br)CCC(Br)C(Br)CCC1Br (stereo not given)', 'n'),
  ('O=C(O)c1cn(-c2ccc(F)cc2)c2cc(N3CCNCC3)c(F)cc2c1=O', 'n'),
  ('CCCCC(CC)COC(=O)CC(C(=O)OCC(CC)CCCC)S(=O)(=O)O (stereo not given)', 'y'),
  ('Cc1ccc(S(=O)(=O)Oc2ccc(N=Nc3ccc(-c4ccc(N=Nc5c(O)ccc6cc(S(=O)(=O)O)cc(S(=O)(=O)O)c56)c(C)c4)cc3C)cc2)cc1', 'n'),
  ('Oc1ccc(Cl)cc1Cc1cc(Cl)ccc1O', 'n'),
  ('Nc1ccc2cc3ccccc3cc2c1', 'n'),
  ('OCC(CO)N[C@H]1C[C@](O)(CO)[C@@H](O)[C@H](O)[C@H]1O', 'n'),
  ('CC(N)=O', 'n'),
  ('CCC(CO)(CO)COCC(CC)(CO)CO', 'n'),
  ('O=C(O)CCc1ccccc1', 'n'),
  ('c1ccc2c(c1)CCCC2C1=NCCN1 (stereo not given)', 'n'),
  ('CCOC(=O)C(C)C(C)=O (stereo not given)', 'n'),
  ('CCCCOCCOC(=O)c1ccccc1C(=O)OCCOCCCC', 'n'),
  ('O', 'n'),
  ('O=Cc1ccc(Cl)cc1', 'n'),
  ('CCC[C@H](N[C@@H](C)C(=O)N1[C@H](C(=O)O)C[C@@H]2CCCC[C@@H]21)C(=O)OCC', 'n'),
  ('O=c1n(CC2CO2)c(=O)n(CC2CO2)c(=O)n1CC1CO1 (stereo not given)', 'n'),
  ('COc1cc(C(=S)N2CCOCC2)ccc1O', 'n'),
  ('Nc1ccc(O)cc1', 'n'),
  ('CCN(CC)c1ccc2c(C)cc(=O)oc2c1', 'n'),
  ('C=C(C)C1CC=C(C)C(OC(C)=O)C1 (stereo not given)', 'n'),
  ('Cc1cccc(O)c1C', 'n'),
  ('Cc1cccc([N+](=O)[O-])c1C(=O)O', 'n'),
  ('COc1ccc(CCN(C)CCCC(C#N)(c2ccc(OC)c(OC)c2)C(C)C)cc1OC (stereo not given)', 'n'),
  ('CC(=O)O[C@]1(C(C)=O)CC[C@H]2[C@@H]3C[C@H](C)C4=CC(=O)CC[C@]4(C)[C@H]3CC[C@@]21C', 'n'),
  ('NNCCc1ccccc1', 'n'),
  ('CC1COC(=O)O1 (stereo not given)', 'n'),
  ('C=CC(=O)OCCCCCCCC', 'n'),
  ('CCCN[C@H]1CCc2nc(N)sc2C1', 'n'),
  ('CC(C)(C)NC(=O)[C@@H]1CN(Cc2cccnc2)CCN1C[C@@H](O)C[C@@H](Cc1ccccc1)C(=O)N[C@H]1c2ccccc2C[C@H]1O', 'n'),
  ('CC(C)(C)NCC(O)c1cc(O)cc(O)c1 (stereo not given)', 'n'),
  ('NC(N)=NC(=O)Cc1c(Cl)cccc1Cl', 'n'),
  ('[Cl][In]([Cl])[Cl]', 'n'),
  ('CN(C)c1ccc2nc3ccc(=[N+](C)C)cc-3sc2c1', 'n'),
  ('COc1ccc(COC(C)=O)cc1', 'n'),
  ('CN(C)c1ccc(C(=C2C=CC(=[N+](C)C)C=C2)c2ccccc2)cc1', 'y'),
  ('C[N+]1([O-])CCOCC1', 'n'),
  ('C=CS(=O)(=O)O', 'n'),
  ('O=C1NCC2(CCN(CCc3ccccc3)CC2)O1', 'n'),
  ('CNC1(C)C2CCC(C2)C1(C)C (stereo not given)', 'n'),
  ('Cc1occc(=O)c1OC(=O)C(C)C', 'n'),
  ('CC(C)CCOC(=O)c1ccc(N(C)C)cc1', 'n'),
  ('c1cnc2cc3c(cc2n1)C1CNCC3C1', 'n'),
  ('Nc1cc(Cl)c(-c2cc(Cl)c(N)cc2Cl)cc1Cl', 'n'),
  ('NC(=Nc1ccccc1)Nc1ccccc1', 'n');
